Values compiled from the SangsterLogP compilation.

measurement_name: logP
One number for each entry.

Using the record for Cc1cccc2c3c(ccc12)C1=C(C(=O)C3=O)[C@@H](C)CO1 , report its logP. 3.14

###

experiment: method code RP-HPLC, from DOI: 10.1081/jlc-120027619; conditions: pH 3.1
measurement_name: logD
Numbers only.

These recorded examples may help you get a feel for the data.
Report logD for O=C(O)C(O)Cc1ccc(O)c(O)c1 (stereo unspecified) please. 0.11

Same again, this time with O=C1c2cccc(O)c2C(=O)c2c(O)cc(CO)cc21 3.18

Another compound to look at: Cc1cc(O)c2c(c1)C(=O)c1cccc(O)c1C2=O 4.39

Please give the result for Cc1cc(O)c2c(c1)C(=O)c1cc(O)cc(O)c1C2=O too. 4.48

Follow-up item: O=c1c(-c2ccc(O)cc2)coc2c([C@@H]3O[C@H](CO)[C@@H](O)[C@H](O)[C@H]3O)c(O)ccc12 1.34

Please give the result for Cc1coc2c1C(=O)C(=O)c1c-2ccc2c(C)cccc12 too. 4.65

Now give it for O=C(O)c1cc(O)c2c(c1)C(=O)c1cccc(O)c1C2=O too. 3.68

And for O=Cc1ccc(O)c(O)c1 ? 0.82

Query Cc1coc2c1C(=O)C(=O)c1c-2ccc2c1CCCC2(C)C next 5.4

Now the same for C[C@H]1COC2=C1C(=O)C(=O)c1c2ccc2c1CCCC2(C)C 4.72

For the next question, use this compound.
Given the entry COc1cc(O)c2c(c1)C(=O)c1cc(C)cc(O)c1C2=O , report its measured logD. 4.93
